Provenance of the data: ChEMBL document CHEMBL5303304

Tested on: HEK-293T
Assay: Incucyte cell viability with HEK293T; note: unitless GR value; below 1 slowed growth and below 0 cell loss
Assay type: toxicity, cell-based
Settings: human, 24 h, 10 µM, compound concentration 10 uM, replicate number 2
Friendly reminder: Growth Rate below 0.3 is 1, at or above is -1.

# COMPOUND, ASSIGNED_CATEGORY
records = [
    ("CC(C)(C)c1ccc(-c2coc3ccc(-c4cn[nH]c4)nc23)cc1", -1),
    ("CCn1c(-c2nonc2N)nc2c(C#CC(C)(C)O)ncc(OCC3CCCNC3)c21 (centres undefined)", 1),
    ("CC(C)N1CCN(Cc2cnc(-c3cc(-c4cccc5[nH]ccc45)cc4[nH]ncc34)o2)CC1", -1),
    ("Cc1onc(-c2ccc(F)cc2)c1COc1ccc(C(=O)N2CCS(=O)(=O)CC2)cn1", -1),
    ("CCN1C(=O)c2cc(C)ccc2N(C)c2ncccc21", -1),
    ("CN(C)CCCNc1ccnc(Nc2cccc(Cl)c2)n1", 1),
    ("CCn1c(-c2nc3cc(C(=O)N4CCCC(N)C4)ccc3n2C)cc2ccccc21.Cl (centres undefined)", -1),
    ("N#CN1CC[C@@H](C(=O)Nc2nc3c(s2)CN(C(=O)CN=[N+]=[N-])CC3)C1", -1),
    ("Cc1[nH]nc2ccc(-c3cncc(OCC(N)Cc4c[nH]c5ccccc45)c3)cc12 (centres undefined)", 1),
]
